# measured.target: T1, EGFR (recombinant human, BLI antigen) (human, UniProt P00533 25-645)
# T1 construct: also called rh-EGFR; human EGFR
# method.description: BLI (Octet) as in Example 1
property: koff (s⁻¹)

pgEG1 (VHH, not shown: small tags and cut ends) VHH: QVQLVESGGGLVQPGGSLRLSCAASGIIFEAEAMGWVRQAPGKQRESVAFIGSGGNTNVGWSVKGRFTISRDNAKNTLYLQMNSLRPEDTAVYYCNTHPLRSWGQGTQVTVS | 0.00243

(I) pgEG5 (VHH, not shown: small tags and cut ends) VHH: QVQLVESGGGLVQPGGSLRLSCTASHNIFSDNAMAWSRQAPGAQRELVARIATGGNTYYPDSVKGRFTISRDNAKNTVYLQMNNLTPDDTAVYYCYAERWTGLEYSRTYWGQGTQVTVSS
(II) pgEG12 (VHH, not shown: small tags and cut ends) VHH: QVQLVESGGGLVQAGGSLSLSCTASRNIFSINVMSWYRQAPGKQREFVASITREDFPYYTDSVKGRFTVTRDIANNKVHLQMNSLKLEDTAVYYCNAYYRSDNYWGQGTQVTVSS
(III) pgEG6 (VHH, not shown: small tags and cut ends) VHH: QVQLVESGGGLVQPGGSLRLSCVASGIIFEAEAMGWYRQAPGKQRESVAFIGSGGNTNVGWSVKGRFTISRDNAKNTVYLQMNSLKPEDTAVYYCNTHPLRSWGQGTQVTVSS
Q: Rank by koff (largest to smallest). State the ranking by listing the labels in the requested order.
Ans: III, II, I
(III: 0.0136 s⁻¹, II: 0.00251 s⁻¹, I: 0.00134 s⁻¹)
